Answer each item with its documented melting point.

Query: Form field: reported melting point of `Cc1nc2ccccc2n(-c2ccc(N(C)C)cc2)c1=O`
Reply: 230 to 231 °C

Query: Now the same for `CC(C)(C)c1cc(CCc2ccc(F)cc2NC(=O)NC2CCN(Cc3ccccc3)CC2)cc(C(C)(C)C)c1O`
Reply: 118 to 119 °C

Query: Now the same for `CCN(CC)C(=O)CC(=O)CC(=O)/C=C/c1c(C2CC2)nc2ccccc2c1-c1ccc(F)cc1`
Reply: 97 to 105 °C

Query: Now the same for `CC(=O)c1ccc(-n2c(-c3sc(NC(=O)c4ccccc4)nc3-c3ccccc3)nc3ccccc3c2=O)cc1`
Reply: 250 to 252 °C

Query: Now the same for `OC/C=C/c1ccc(OCc2coc(-c3ccccc3)n2)c(F)c1`
Reply: 134 to 135 °C

Query: Now the same for CCOC(=O)C1=C(C)NC(C)=C(C(=O)OC)C1c1cccc(C(F)(F)F)c1 (single isomer, unassigned; (-))
Reply: 134 to 135 °C

Query: Now the same for `O=C(Nc1cccc(S(=O)(=O)NCC2CC2)c1)c1cnn2c(C(F)(F)F)cc(-c3ccc(C(F)(F)F)cc3)nc12`
Reply: 234 °C

Query: Now the same for `Oc1ccccc1C=C1c2ccccc2CCc2ccccc21`
Reply: 56.9 °C

Query: Now the same for `CCOC(=O)c1ccc(NCCc2ccc(OCc3ccccc3)cc2)cc1`
Reply: 94 to 97 °C

Query: Now the same for CCC(C)n1cc(Cl)nc(N2CCc3cc(Br)cc(Cl)c32)c1=O (stereo not drawn)
Reply: 150 °C

Query: Now the same for `O=c1ccc2c(-c3ccccc3)nccc2[nH]1`
Reply: 261 to 263 °C

Query: Now the same for `N#Cc1cc(/C=C/C(=O)Nc2ccc(Br)cc2)ccc1F`
Reply: 205 to 210 °C

Query: Now the same for `CC(C)(C(=O)O)c1ccc(O[Si](C)(C)C(C)(C)C)cc1`
Reply: 78 to 80 °C
